Cited source: paper PMC6733653

TESTED SYSTEM: CquiOR4 (Culex quinquefasciatus, UniProt A0A3G1T0B0)
Sequence (A0A3G1T0B0 1-391): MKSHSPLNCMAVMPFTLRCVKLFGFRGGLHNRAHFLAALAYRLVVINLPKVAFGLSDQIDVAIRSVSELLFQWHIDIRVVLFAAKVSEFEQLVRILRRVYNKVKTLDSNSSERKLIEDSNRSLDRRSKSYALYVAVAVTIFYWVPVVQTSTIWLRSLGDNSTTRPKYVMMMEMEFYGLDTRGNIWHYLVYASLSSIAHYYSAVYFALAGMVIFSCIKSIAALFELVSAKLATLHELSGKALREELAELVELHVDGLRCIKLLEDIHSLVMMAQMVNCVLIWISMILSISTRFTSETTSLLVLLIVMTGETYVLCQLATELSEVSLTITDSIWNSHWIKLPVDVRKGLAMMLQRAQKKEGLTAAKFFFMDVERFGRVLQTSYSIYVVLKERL
ASSAY: two-electrode voltage clamp, Xenopus oocytes, concentration-response
MEASUREMENT TYPE: pEC50
Keep in mind that pEC50 stands for -log10 of concentration in molar terms.

Ask | Quick check: pEC50 of OCCc1ccccc1 [2-phenylethanol] ?
Reply | 7.55

----------
TESTED SYSTEM: CquiOR5 (Culex quinquefasciatus, UniProt A0A3G1T0A9)
Sequence (A0A3G1T0A9 1-393): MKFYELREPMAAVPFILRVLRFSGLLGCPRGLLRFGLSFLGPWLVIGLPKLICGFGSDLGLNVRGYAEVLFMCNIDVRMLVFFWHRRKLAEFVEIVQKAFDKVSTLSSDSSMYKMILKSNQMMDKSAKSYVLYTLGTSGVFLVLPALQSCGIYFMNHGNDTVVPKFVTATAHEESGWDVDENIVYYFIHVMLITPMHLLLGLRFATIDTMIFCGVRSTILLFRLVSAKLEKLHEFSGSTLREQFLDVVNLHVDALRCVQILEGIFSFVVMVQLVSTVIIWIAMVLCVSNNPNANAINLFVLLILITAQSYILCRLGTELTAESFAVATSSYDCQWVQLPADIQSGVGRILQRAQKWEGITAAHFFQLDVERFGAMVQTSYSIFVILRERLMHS
ASSAY: two-electrode voltage clamp, Xenopus oocytes, concentration-response
MEASUREMENT TYPE: pEC50
Reminder that pEC50 means the negative base-10 logarithm of the concentration expressed in mol/L.

Ask | Would you kindly share the measured pEC50 for C=CC(C)(O)CCC=C(C)C (racemic) ?
Reply | 6.24
